Molecular target: T1, CYSLTR2 N-terminal disordered region peptide, MERKFMSLQPSISVSEMEPNGTFSNNNSRNCTIENFKREFFP (biotin label)
T1 construct: also called CysLT2; CysLT2r
T1 peptide: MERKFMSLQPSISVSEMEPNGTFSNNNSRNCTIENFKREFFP
Experiment: modified sandwich ELISA, fluorescence grade by the table's key; also: test concentration or dose not given here
QUANTITY_KIND: fluorescent signal

>>> reading("engineered scaffold protein S098 (designed binder) PENYLFQGRQECNGTQFLERYIYNREEFVRFDEFRAVGRPDEEYWNSQKDILEEERAVPDRMCRHNYELGGPMTLQRRVQPRVNIKADHVSTYAAFVQRPFMFEFDEDEMFYVDLHLEEFGQAFSFEAQGGLANIAILNNNLNTRSNHTQATNDPPHHHHHHLE")
"100000 to 250000 fluorescentsignal"
>>> reading("engineered scaffold protein S090 (designed binder, also called scaffold v1.2; v1.2) IKEEHSIRQNEMYLNPDQSGLFEFHLDGQPIFRVDMQKKRTKWQLEEFGRFASFEAQGALANIAVDKANLEIMTKRSNQSEAGSHSWQLIFVCEFHEGTESVRLSERCYYNQELSVSFNSDVGEYRAVTELGRPDAEYWNSQKDLLEQRRAAVDTYCRHNYGVGESFTVQRRGGSHHHHHHLE")
"250000 to 400000 fluorescentsignal"
>>> reading("engineered scaffold protein S177 (designed binder) MIKEEHVINQAEYYLNPDQSGEFKFDFDGDEIFHVDMAKKETVWRLEEFGRFASFEAQGALAHIAVDKANLEIMTKRSNYTPMGDTRPRFLWQLKYECHFFNGTERVRLNERCIYNQEESVRFDSDVGEYRAVTELGRPDAEQWNSQKDHLEQRRAAVDTKCRHNYGVGESFTVQGGSHHHHHHLE")
"100000 to 250000 fluorescentsignal"

Cited source: patent US20250387450A1
